Where these numbers come from: ChEMBL document CHEMBL1126959

# target-or-test-system: 3-hydroxy-3-methylglutaryl-coenzyme A reductase (Rattus norvegicus, UniProt P51639)
# Sequence (P51639 whole entry): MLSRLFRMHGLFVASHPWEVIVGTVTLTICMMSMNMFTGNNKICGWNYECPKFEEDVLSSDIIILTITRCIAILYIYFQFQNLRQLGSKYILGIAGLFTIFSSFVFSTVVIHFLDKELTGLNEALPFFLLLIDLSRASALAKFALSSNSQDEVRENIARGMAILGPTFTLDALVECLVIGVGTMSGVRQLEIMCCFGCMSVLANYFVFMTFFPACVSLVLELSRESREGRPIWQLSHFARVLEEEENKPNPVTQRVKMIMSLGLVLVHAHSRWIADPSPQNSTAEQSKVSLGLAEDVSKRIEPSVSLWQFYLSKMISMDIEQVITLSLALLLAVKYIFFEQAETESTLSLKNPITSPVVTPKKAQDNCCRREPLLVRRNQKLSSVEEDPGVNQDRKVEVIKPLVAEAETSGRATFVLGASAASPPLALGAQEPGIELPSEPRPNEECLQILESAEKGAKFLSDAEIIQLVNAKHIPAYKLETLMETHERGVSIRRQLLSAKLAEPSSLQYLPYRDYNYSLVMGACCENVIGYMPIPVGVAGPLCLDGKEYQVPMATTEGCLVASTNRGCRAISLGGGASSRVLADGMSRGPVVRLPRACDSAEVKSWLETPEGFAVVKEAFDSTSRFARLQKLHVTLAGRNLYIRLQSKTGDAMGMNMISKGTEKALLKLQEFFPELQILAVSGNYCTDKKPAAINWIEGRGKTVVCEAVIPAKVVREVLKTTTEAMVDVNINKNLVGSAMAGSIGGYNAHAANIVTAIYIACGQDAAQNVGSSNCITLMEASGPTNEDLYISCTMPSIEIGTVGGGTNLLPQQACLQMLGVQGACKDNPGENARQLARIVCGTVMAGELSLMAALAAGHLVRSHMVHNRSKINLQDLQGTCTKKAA
# test-description: Inhibitory activity against partially purified rat liver HMG-CoA reductase in vitro; 0.015-0.51
measured-parameter: IC50
Could you write the number and then its unit?

What does the data say about its IC50? Entry: COc1ccc(CC2CCCc3c2nn(-c2ccc(F)cc2)c3/C=C/[C@@H](O)C[C@@H](O)CC(=O)O)cc1 (stereo partly specified) 0.028 µM

---

# Test system: HepG2
# test-description: Tested for ability to inhibit incorporation of [14C]acetate into cholesterol in cultured human hepatoma (HEP-G2) cells; 0.44-3.0
# Assay type: functional, cell-based
measured-parameter: pIC50
One number for each entry, as −log10 of the molar value.

Short answer please: pIC50, HepG2, entry COc1cccc(CC2CCCc3c2nn(-c2ccc(F)cc2)c3/C=C/[C@@H](O)C[C@@H](O)CC(=O)O)c1 (stereo partly specified) 5.92
